Target: Muscarinic acetylcholine receptor M5 (Homo sapiens) (UniProt P08912)
Sequence (P08912 whole entry, looked up): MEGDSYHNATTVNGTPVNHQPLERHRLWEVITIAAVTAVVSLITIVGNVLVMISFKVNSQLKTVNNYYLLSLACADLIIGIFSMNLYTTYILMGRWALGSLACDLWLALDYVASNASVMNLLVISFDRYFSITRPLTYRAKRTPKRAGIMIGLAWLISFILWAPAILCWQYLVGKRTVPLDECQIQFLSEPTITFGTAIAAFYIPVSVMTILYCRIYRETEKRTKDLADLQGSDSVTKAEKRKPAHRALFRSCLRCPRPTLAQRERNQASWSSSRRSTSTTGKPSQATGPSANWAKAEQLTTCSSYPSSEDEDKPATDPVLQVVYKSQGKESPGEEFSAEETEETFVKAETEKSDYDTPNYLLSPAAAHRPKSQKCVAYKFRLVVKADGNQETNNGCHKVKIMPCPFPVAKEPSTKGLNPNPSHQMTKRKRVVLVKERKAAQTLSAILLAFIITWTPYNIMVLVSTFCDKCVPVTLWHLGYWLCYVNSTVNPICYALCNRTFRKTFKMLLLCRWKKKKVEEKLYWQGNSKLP
Assay: M5 muscarinic receptor positive allosteric modulators, cell-based, single concentration, CHO-K1 hM5, calcium flux (AID 743100)
Settings: CHO-K1 hM5, Fluo-4 calcium flux, ACh EC20; at 10 µM unless noted
The source made the active and inactive calls.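 Rule for the calls: active = calcium response above 60% of the acetylcholine maximum at human M5, as a positive modulator; inactive = the rest.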
Outcomes: active, inactive

molecule	category
CCN([C@H](C)c1ccccc1)S(=O)(=O)C1CCN(S(=O)(=O)c2ccc3cn[nH]c3c2)CC1	inactive
CC(=O)N(Cc1ccccc1)CC1CCN(S(=O)(=O)c2ccc3c(c2)OCCO3)CC1	inactive
CC(=O)N(Cc1ccccc1)CC1CCN(S(=O)(=O)c2ccc3cn[nH]c3c2)CC1	inactive
CCN(Cc1ccc(F)cc1)C(=O)C1CCN(S(=O)(=O)c2ccc3cn[nH]c3c2)CC1	inactive
CCN(Cc1ccc(-c2ccccc2)cc1)C(=O)C1CCN(S(=O)(=O)c2ccc3cn[nH]c3c2)CC1	inactive
CC1c2ccccc2CCN1C(=O)C1CCN(S(=O)(=O)c2ccc3[nH]ncc3c2)CC1 (stereo unspecified)	inactive
CCN(Cc1ccccc1)C(=O)C1CCN(S(=O)(=O)c2ccc(C(C)C)cc2)CC1	active
CCN(Cc1ccccc1)C(=O)C1CCN(S(=O)(=O)c2cccc(OC)c2)CC1	active
CCN(C(=O)C1CCN(S(=O)(=O)c2ccc(-n3cccn3)cc2)CC1)[C@H](C)c1ccccc1	active
CCN(Cc1ccccc1)C(=O)C1CCN(S(=O)(=O)c2ccccc2Cl)CC1	inactive
CCN(Cc1cccc(C#N)c1)C(=O)C1CCN(S(=O)(=O)c2ccc3cn[nH]c3c2)CC1	inactive
CCN(CC1CCN(S(=O)(=O)c2ccc3occc3c2)CC1)C(=O)c1ccccc1	inactive
CCN(Cc1ccccc1)C(=O)C1CCN(S(=O)(=O)c2cc(C)ccc2C)CC1	inactive
CCN(Cc1ccccc1)C(=O)C1CCN(S(=O)(=O)c2ccc(OC)nc2)CC1	active
CC(=O)N(Cc1ccccc1)CC1CCN(S(=O)(=O)c2ccc3occc3c2)CC1	inactive
CCN(Cc1ccccc1)C(=O)C1CCN(S(=O)(=O)c2cccnc2)CC1	inactive
CC(=O)N(Cc1ccccc1)CC1CCN(S(=O)(=O)c2ccc(OC(F)(F)F)cc2)CC1	inactive
CCN(Cc1ccccc1)C(=O)C1CCN(S(=O)(=O)c2ccc3c(c2)OCCO3)CC1	active
CCN(Cc1ccccc1)C(=O)C1CCN(S(=O)(=O)c2ccc(OC(F)F)cc2)CC1	active
CCN(Cc1ccccc1)C(=O)C1CCN(S(=O)(=O)c2ccccc2F)CC1	inactive
O=C1N(Cc2ccccc2C(F)(F)F)CCCC12CCN(S(=O)(=O)c1ccc3[nH]ncc3c1)CC2	inactive
CCN(Cc1ccccc1)C(=O)C1CCN(S(=O)(=O)c2ccc3[nH]ncc3c2)CC1	active
CCN(Cc1ccccc1)C(=O)C1CCN(S(=O)(=O)c2cccc(C)c2)CC1	active
CCCc1ccc(S(=O)(=O)N2CCC(C(=O)N(CC)Cc3ccccc3)CC2)cc1	active
CCN(Cc1ccccc1)C(=O)C1CCN(S(=O)(=O)c2ccc3c(cnn3C)c2)CC1	active
CCN(Cc1ccccc1C(F)(F)F)C(=O)C1(F)CCN(S(=O)(=O)c2ccc(-n3cccn3)cc2)CC1	inactive

====

Molecular target: Muscarinic acetylcholine receptor M5 (Homo sapiens) (UniProt P08912)
Assay: M5 muscarinic receptor positive allosteric modulators, cell-based, single concentration, CHO-K1 hM5, calcium flux (AID 743100)
Details: CHO-K1 hM5, Fluo-4 calcium flux, ACh EC20; at 10 µM unless noted
Calls of active or inactive are those of the source.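 The calls were made as follows: active = calcium response above 60% of the acetylcholine maximum at human M5, as a positive modulator; inactive = the rest.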
Outcomes: active, inactive

compound_structure	category
CCN(Cc1ccccc1)C(=O)C1CCN(S(=O)(=O)c2cccc3nsnc23)CC1	inactive
CCN(Cc1cccc(F)c1F)C(=O)C1CCN(S(=O)(=O)c2ccc3cn[nH]c3c2)CC1	active
CCN(C(=O)C1CCN(S(=O)(=O)c2ccc3c(c2)CCO3)CC1)[C@H](C)c1ccccc1	active
CCN(C(=O)C1CCN(S(=O)(=O)c2ccc(-n3cccn3)cc2)CC1)[C@H](C)c1ccccc1C(F)(F)F	inactive
CCN(Cc1cccc(F)c1)C(=O)C1CCN(S(=O)(=O)c2ccc3cn[nH]c3c2)CC1	active
CCN(Cc1ccccc1)C(=O)C1CCN(S(=O)(=O)c2c(C)noc2C)CC1	inactive
CCN(Cc1ccccc1)C(=O)C1CCN(S(=O)(=O)Cc2ccc(Cl)cc2)CC1	inactive
CCN(Cc1ccccc1)C(=O)C1CCN(S(=O)(=O)c2ccc(C)s2)CC1	active
CCN(Cc1ccccc1)C(=O)C1CCN(S(=O)(=O)c2ccc(Cl)nc2)CC1	inactive
CCN(Cc1ccccc1)C(=O)C1CCN(S(=O)(=O)c2cccc(C#N)c2)CC1	active
CCN(Cc1ccccc1)C(=O)C1CCN(S(=O)(=O)c2ccc(C(C)(C)C)cc2)CC1	inactive
CCN(Cc1ccc(SC)cc1)C(=O)C1CCN(S(=O)(=O)c2ccc3cn[nH]c3c2)CC1	inactive
CCN(C(=O)C1CCN(S(=O)(=O)N(C)C)CC1)[C@H](C)c1ccccc1	inactive
CCN(Cc1ccccc1)C(=O)C1CCN(S(=O)(=O)c2ccc3ncccc3c2)CC1	active
CCN(Cc1cccc(C)c1)C(=O)C1CCN(S(=O)(=O)c2ccc3cn[nH]c3c2)CC1	active
CCN(Cc1ccccc1)C(=O)C1CCN(S(=O)(=O)c2ccccn2)CC1	inactive
CCN(Cc1ccccc1C(F)(F)F)C(=O)C1(F)CCN(S(=O)(=O)c2ccc3[nH]ncc3c2)CC1	active
CCN(Cc1ccccc1)C(=O)C1CCN(S(=O)(=O)c2ccc3nn(C)cc3c2)CC1	inactive
CCN([C@H](C)c1ccccc1)S(=O)(=O)C1CCN(S(=O)(=O)c2ccc3occc3c2)CC1	inactive
CCN([C@H](C)c1ccccc1)S(=O)(=O)C1CCN(S(=O)(=O)c2ccc3[nH]ncc3c2)CC1	inactive
CCN(C(=O)C1CCN(S(=O)(=O)c2ccc(OC)cc2)CC1)[C@H](C)c1ccccc1	active
O=C(NCc1ccccc1)C1(Cc2ccccc2)CCN(S(=O)(=O)c2ccc3occc3c2)CC1	inactive
CCN(Cc1ccccc1)C(=O)C1CCN(S(=O)(=O)c2ccc3cn(C)nc3c2)CC1	active
CCN(Cc1ccccc1)C(=O)C1CCN(S(=O)(=O)c2ccc(OC)cc2)CC1	active
CCN(Cc1ccccc1)C(=O)C1CCN(S(=O)(=O)CC(C)(C)C)CC1	inactive
CCN(CC1CCN(S(=O)(=O)c2ccc3cn[nH]c3c2)CC1)C(=O)c1ccccc1	inactive
CCN(Cc1ccc(C#N)cc1)C(=O)C1CCN(S(=O)(=O)c2ccc3cn[nH]c3c2)CC1	inactive
CCN(Cc1ccncc1)C(=O)C1CCN(S(=O)(=O)c2ccc3cn[nH]c3c2)CC1	inactive
CCN(CC1CCN(S(=O)(=O)c2cccc(OC)c2)CC1)C(=O)c1ccccc1	inactive
CCN(Cc1ccccc1)C(=O)C1CCN(S(=O)(=O)c2cccc(Cl)c2)CC1	active
CCOC(=O)C1(Cc2ccccc2)CCN(S(=O)(=O)c2ccc3occc3c2)CC1	inactive
CCN(CC1CCN(S(=O)(=O)c2ccc3c(c2)OCCO3)CC1)C(=O)c1ccccc1	inactive
CCN(Cc1ccccc1)C(=O)C1CCN(S(=O)(=O)Cc2cccc(C(F)(F)F)c2)CC1	inactive
COc1cccc(S(=O)(=O)N2CCC(CN(Cc3ccccc3)C(C)=O)CC2)c1	inactive
